For each of the compounds below, state its residual activity.
# System: ROCK2 (rat)
# TEST METHOD NOTES: radiometric filter-binding kinase assay
# MEASUREMENT CONTEXT: compound 10.0 µM; accession and sequence are those of the human protein
Numbers only, in %.

Answered examples (2):
INPUT: Fill in: residual activity of `CNc1nc(-c2ccc3c(N)n[nH]c3c2)cc(N2C[C@@H](C(=O)NC3CCCCC3)CC[C@H]2C)n1` is ___
OUTPUT: 27

INPUT: # lookup: residual activity of Nc1cccc2c1CN(C1CCC(=O)NC1=O)C2=O (stereo not given)
OUTPUT: 88

Each compound below has a reported value. Please supply its residual activity.
1. COc1cc(C(=O)N2CCOCC2)c(F)cc1Nc1ncc(C(F)(F)F)c(NC2CC2)n1
2. O=C(N[C@@H](COc1ccc2[nH]c(=O)[nH]c2c1)c1ccccc1)c1cccn(Cc2ccc(F)c(F)c2)c1=O
3. NC(=O)c1c(NC(=O)C2CC2)sc2c1CCCC2

OUTPUT:
78
108
91
